The reported numbers originate from patent US8476283B2.

# system.under.test: GPR119 (Homo sapiens, UniProt Q8TDV5)
# Sequence (Q8TDV5 whole entry): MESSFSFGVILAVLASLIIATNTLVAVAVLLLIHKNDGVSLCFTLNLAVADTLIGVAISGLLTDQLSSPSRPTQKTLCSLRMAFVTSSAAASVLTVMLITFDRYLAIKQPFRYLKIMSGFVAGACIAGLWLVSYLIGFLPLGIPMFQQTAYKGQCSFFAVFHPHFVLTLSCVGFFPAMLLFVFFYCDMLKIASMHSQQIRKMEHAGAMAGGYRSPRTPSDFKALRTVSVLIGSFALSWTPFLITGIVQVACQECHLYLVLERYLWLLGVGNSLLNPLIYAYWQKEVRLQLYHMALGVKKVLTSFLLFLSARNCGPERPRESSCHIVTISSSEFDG
# assay.remarks: Human Tet-Inducible cAMP Assay (hEC50, Table 1)
# reported.conditions: human GPR119 agonist activity, cAMP
pEC50: −log10 of the molar value.
assay.readout: pEC50

Previously resolved entries follow.
molecule	system.under.test	assay.readout	test.result
CCc1cnc(N2CCC(n3ncc4c(Nc5ccc(S(C)(=O)=O)cc5F)ncnc43)CC2)nc1	GPR119 (Homo sapiens, UniProt Q8TDV5)	pEC50	7.12
CC(C)OC(=O)N1CCC(n2ncc3c(Nc4ccc(S(C)(=O)=O)cc4F)ncnc32)CC1	GPR119 (Homo sapiens, UniProt Q8TDV5)	pEC50	6.51
CC(C)(C)OC(=O)N1CCC(n2nnc3c(Nc4ccc(S(C)(=O)=O)cc4F)nccc32)CC1	GPR119 (Homo sapiens, UniProt Q8TDV5)	pEC50	5.86
CC(C)OC(=O)N1CCC(n2nnc3c(Nc4ccc(S(C)(=O)=O)cc4Cl)ncnc32)CC1	GPR119 (Homo sapiens, UniProt Q8TDV5)	pEC50	7.13
CS(=O)(=O)c1ccc(Nc2ncnc3c2ncn3C2CCN(c3ncccn3)CC2)c(F)c1	GPR119 (Homo sapiens, UniProt Q8TDV5)	pEC50	6.44
CC(C)(C)OC(=O)N1CCC(n2nnc3c(Nc4ccc(S(C)(=O)=O)cc4F)ncnc32)CC1	GPR119 (Homo sapiens, UniProt Q8TDV5)	pEC50	7.71
CC(C)OC(=O)N1CCC(n2nnc3c(Nc4ccc(S(C)(=O)=O)cc4F)ncnc32)CC1	GPR119 (Homo sapiens, UniProt Q8TDV5)	pEC50	6.86
CC(C)(C)OC(=O)N1CCC(n2nnc3c(Nc4ccc(C#N)cc4Cl)nccc32)CC1	GPR119 (Homo sapiens, UniProt Q8TDV5)	pEC50	6.39

A: CC(C)OC(=O)N1CCC(n2ncc3c(Oc4cccnc4C#N)ncnc32)CC1
B: CCCc1cnc(N2CCC(n3ncc4c(Nc5ccc(S(C)(=O)=O)cc5F)ncnc43)CC2)nc1
Query: // max by pEC50 over [ A , B ] // respond with label for picked entry
Result: B

1: CC(C)OC(=O)N1CCC(n2cnc3c(Nc4ccc(S(C)(=O)=O)cc4F)ncnc32)CC1
2: Cc1ncccc1Oc1ncnc2c1cnn2C1CCN(C(=O)OC(C)C)CC1.Cl [Example 18, hydrochloride salt]
Query: Between 1 and 2 , whose recorded pEC50 is greater? Selection: enter the item's label.
Result: 1
(1: 6.39, 2: 5.57)
